- measured-on: HLA-DR DRB1*0401 (human)
- test-name: competition with 125I-labeled reference peptide, purified HLA
Please provide measured IC50 for the entries that follow.
Numbers only, in µM.

Would you please look over these solved cases?
QLLLEVEQEIRTFSF (modifications not checked) [Flu.NS2.180] = 13.9
SIWIELDEIGEDVAP (modifications not checked) [Flu.PA.423] = 5.4
LKQYDSDEPELRSLS (modifications not checked) [Flu.PA.393] = 7.26

Can you give me IC50 for all of these, one by one?
1. ALQLLFEVEQEIRTF (modifications not checked) [Flu.NS2.178]
2. FNPMIVELAEKTMKE (modifications not checked) [Flu.PA.12]
3. RREVHIYYLEKANKI (modifications not checked) [Flu.PA.127]
4. RNYFTAEVSHCRATE (modifications not checked) [Flu.PA.446]

10.3
0.029
0.063
0.045
